# Protocol Description: NCI Yeast Anticancer Drug Screen. Data for the mlh1 rad18 strain (AID 175)
# Measurement Context: S. cerevisiae mlh1 rad18 strain growth inhibition; at 5.0 µM (retest, dose inferred, filed as 0.5); stronger effect = higher value
Compounds without any hit were thinned out: in the full panel of roughly 79,000, 15% have a hit.

{"Molecule": "COC(=O)C#CC(=O)OC", "growth inhibition (%)": -2}
{"Molecule": "CCSSc1ccccc1C(=O)NC(CC)CO (configuration not stated)", "growth inhibition (%)": 3}
{"Molecule": "O=[N+]([O-])c1cccc2nc3ccccc3c(NCCN(CCO)CCO)c12", "growth inhibition (%)": 90}
{"Molecule": "COc1ccc2c(c1)C(Cc1ccc(Oc3ccc(CC4c5cc(OC)ccc5CC[N+]4(C)C)cc3)cc1)[N+](C)(C)CC2 (configuration not stated)", "growth inhibition (%)": -10}
{"Molecule": "CC(=O)Nc1cc(C)ccc1C", "growth inhibition (%)": 3}
{"Molecule": "COc1ccc(/C=C/NC=O)cc1", "growth inhibition (%)": -3}
{"Molecule": "CCCCCCCCCCCCCC1=NCC(c2ccc3ccccc3c2)O1 (configuration not stated)", "growth inhibition (%)": -2}

###

Reported growth inhibition values for the following compounds.
# Protocol Description: NCI Yeast Anticancer Drug Screen. Data for the cln2 rad14 strain (AID 165);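 note: 0% = growth equal to vehicle treated cultures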
# Measurement Context: S. cerevisiae cln2 rad14 strain, at 50.0 µM (retest, dose inferred, filed as 5.0), stronger effect = higher value
The panel holds about 79,000 compounds, 15% with a hit somewhere; the sample as a whole holds those more often.
Endpoint Label: growth inhibition (%)

{"Compound": "CC(C)OP(=O)(OC(C)C)C(=Nc1ccccc1)NNc1ccc([N+](=O)[O-])cc1", "Endpoint Label": "growth inhibition", "Value": -6}
{"Compound": "CN1CCN(CN2C(=O)C3C4C=CC(C3C2=O)C2C3C(=O)N(CN5CCN(C)CC5)C(=O)C3C42)CC1 (centres undefined)", "Endpoint Label": "growth inhibition", "Value": -9}
{"Compound": "CCN(CC)CCNc1nc(NCCN(CC)CC)c2nc(-c3ccccc3)c(-c3ccccc3)nc2n1", "Endpoint Label": "growth inhibition", "Value": 97}
{"Compound": "BrC(c1cccc2ccccc12)c1cccc2ccccc12", "Endpoint Label": "growth inhibition", "Value": 94}
{"Compound": "Oc1ccc(/C=N/NC(=S)NN2CCOCC2)nc1", "Endpoint Label": "growth inhibition", "Value": 91}
{"Compound": "Cc1ccc(C(C)C)c2c1CN(CCN1COc3c(C(C)C)ccc(C)c3C1)CO2", "Endpoint Label": "growth inhibition", "Value": 1}
{"Compound": "OC1CCC(O)CC1 (centres undefined)", "Endpoint Label": "growth inhibition", "Value": -3}
{"Compound": "c1ccc2c(c1)[nH]c1c(N3CCOCC3)nnc(N3CCOCC3)c12", "Endpoint Label": "growth inhibition", "Value": -5}
{"Compound": "O=C(C(c1ccccc1)c1ccccc1)C(c1ccccc1)c1ccccc1", "Endpoint Label": "growth inhibition", "Value": -30}
{"Compound": "Nc1ccc2c(ccc3ccc4ccccc4c32)c1", "Endpoint Label": "growth inhibition", "Value": 96}
{"Compound": "CCCCCCCCCCCCCCCCOP(=O)(O)OP(=O)(O)OCC1OC(n2ccc(N)nc2=O)C(O)C1O (centres undefined)", "Endpoint Label": "growth inhibition", "Value": 90}
{"Compound": "NC(=O)NC(=O)C(Cc1ccc(Cl)cc1)c1ccccc1 (centres undefined)", "Endpoint Label": "growth inhibition", "Value": 19}
{"Compound": "O=NC1C(Br)C2CC1C1C(Cl)C(Cl)CC21 (centres undefined)", "Endpoint Label": "growth inhibition", "Value": -7}
{"Compound": "O=S(=O)(O)c1ccc2cc(N=Nc3c(O)ccc4ccccc34)ccc2c1", "Endpoint Label": "growth inhibition", "Value": 0}
{"Compound": "N=C1N(c2ccccc2)C(=S)C(=Nc2ccccc2)N1c1ccccc1", "Endpoint Label": "growth inhibition", "Value": 99}
{"Compound": "c1ccc(-c2cnc(-c3ccc(-c4ncc(-c5ccccc5)o4)cc3)o2)cc1", "Endpoint Label": "growth inhibition", "Value": -10}
{"Compound": "O=[N+]([O-])c1ccc(SSc2ccc([N+](=O)[O-])cc2)cc1", "Endpoint Label": "growth inhibition", "Value": 97}
{"Compound": "COc1ccc(/C=C/NC=O)cc1", "Endpoint Label": "growth inhibition", "Value": 4}
{"Compound": "Cc1cc([N+](=O)[O-])c(C)c2c1[nH]c1ccc(O)cc12", "Endpoint Label": "growth inhibition", "Value": 96}
{"Compound": "O=C1c2ccccc2C(=O)N1CC[P+](c1ccccc1)(c1ccccc1)c1ccccc1", "Endpoint Label": "growth inhibition", "Value": 47}
{"Compound": "c1ccc2nc3c(ccc4ccccc43)cc2c1", "Endpoint Label": "growth inhibition", "Value": 91}
{"Compound": "O=C1c2ccccc2C(=O)c2c(O)c(O)cc(O)c21", "Endpoint Label": "growth inhibition", "Value": 95}
{"Compound": "Cc1cc(NCCCCCCCNc2cc(C)nc3cc([N+](=O)[O-])ccc23)c2ccc([N+](=O)[O-])cc2n1", "Endpoint Label": "growth inhibition", "Value": 70}
{"Compound": "Cn1c(N)nc(=O)c2[nH]cnc21", "Endpoint Label": "growth inhibition", "Value": -3}
{"Compound": "C=C(C)C(=O)Oc1ccc(N=Nc2ccccc2)ccc1=O", "Endpoint Label": "growth inhibition", "Value": 77}
{"Compound": "CCCCCCCCCC(=O)c1ccc(O)c(O)c1O", "Endpoint Label": "growth inhibition", "Value": 96}
{"Compound": "COc1nc(NC2OC(CO)C(O)C(O)C2O)c(Cl)c(=O)n1C (centres undefined)", "Endpoint Label": "growth inhibition", "Value": 3}
{"Compound": "CCOC(=O)Nc1c(C)cc(C)c(Br)c1C", "Endpoint Label": "growth inhibition", "Value": -20}
{"Compound": "O=C(OC(=Nc1ccccc1)N(c1ccccc1)c1ccccc1)c1ccccc1", "Endpoint Label": "growth inhibition", "Value": 21}
{"Compound": "Cc1cc(NS(=O)(=O)c2ccc(N=Nc3cc(N=Nc4ccc(S(=O)(=O)Nc5cc(C)nc(C)n5)cc4)c4c(NC(=O)C(Cl)Cl)cccc4c3OC(=O)C(Cl)Cl)cc2)nc(C)n1 (tested in a mixture with another compound)", "Endpoint Label": "growth inhibition", "Value": 80}
{"Compound": "COc1ccccc1NC(=O)C(/C=N/C(=S)NCCNc1ccc(OC)c(OC)c1)=C(\\C)O", "Endpoint Label": "growth inhibition", "Value": -14}
{"Compound": "c1ccc(C2=NC(c3ccccc3)=NS(S3=NC(c4ccccc4)=NC(c4ccccc4)=N3)=N2)cc1 (centres undefined)", "Endpoint Label": "growth inhibition", "Value": 94}
{"Compound": "CC[C@](O)(CC(=O)O[C@H]1C(=O)O[C@@H]2C[C@H]3C(C)=CC(=O)[C@@H](O)[C@]3(C)[C@H]3[C@@]4(O)OC[C@]32[C@@H]1[C@@H](C)[C@H]4O)C(C)C", "Endpoint Label": "growth inhibition", "Value": 98}
{"Compound": "Nc1nc(Cl)cc(NCCCCCCCCCCNc2cc(Cl)nc(N)n2)n1", "Endpoint Label": "growth inhibition", "Value": 99}
{"Compound": "COc1cccc(NC(=S)N2CCCCC2)c1", "Endpoint Label": "growth inhibition", "Value": -102}
{"Compound": "Clc1c(C(Cl)(Cl)Cl)nsc1N1CCCCC1", "Endpoint Label": "growth inhibition", "Value": 10}
{"Compound": "CCCCCCCCC(Sc1n[nH]c(=O)[nH]c1=O)C(=O)OCC (centres undefined)", "Endpoint Label": "growth inhibition", "Value": 88}
{"Compound": "Oc1ccccc1C=Nc1ccccc1O", "Endpoint Label": "growth inhibition", "Value": 5}
{"Compound": "CC(=O)NC1CCC(C2CCCCC2)CC1C1CCCCC1 (centres undefined)", "Endpoint Label": "growth inhibition", "Value": 82}
{"Compound": "CC(=O)[O-].[O-]c1c(Cl)cc(Cl)cc1/C=N/Nc1ccccn1.[Zn+2]", "Endpoint Label": "growth inhibition", "Value": 93}
{"Compound": "CCCCCC(C)c1ccc(O)c(C)c1 (centres undefined)", "Endpoint Label": "growth inhibition", "Value": 75}
{"Compound": "CC1(C)N(OC2CCCCO2)C(c2ccccc2)C(c2ccccc2)=[N+]1[O-] (centres undefined)", "Endpoint Label": "growth inhibition", "Value": 27}
{"Compound": "CC1(O)Cc2c(O)c3c(c(O)c2CC1O)C(=O)C=CC3=O (centres undefined)", "Endpoint Label": "growth inhibition", "Value": 37}
{"Compound": "Nc1nnc(/C=C/c2ccccc2)o1", "Endpoint Label": "growth inhibition", "Value": -4}

Values were extracted from PubChem BioAssay (NCI).
